Each recorded value in this set is attributed to the supplement of paper PMC11780869.

# Tested on: Bacillus subtilis
# experimental_protocol: cleaved RNA product abundance (RNA/gDNA barcode ratio) relative to median wild-type variant (ratio to wild type); higher = more accumulation of the downstream cleavage product
# study_conditions: experiment (reporter, strain, medium): exp 4a: truncated aprE reporter, strain BJT201 with 2% xylose (RNase J1 expressed); cleavage site: cggR-gapA (positions -7 to +36 mutated)
Please respond with reported cleaved RNA product abundance for every item in the list.
API note: the answer field is a bare number with no unit suffix.

// field: cleaved RNA product abundance; key: ACAGACGAAGGAGCCGCAAACAAGTTATTAAGGGATGGATAATCCCTCAATATAAATATCTCTCACTTATTTAAA ; value = 0.545

The value of cleaved RNA product abundance measured for the sequence ACAGACGAAGGAGCCGCAAAGAAGTTTTTAACGGATGAATAATCCCTCAATATAAATATCTCTCACTTATTTAAA turned out to be 0.197

// sample ACAGACGAAGGAGCCGCAAAGAAGATATTAAGGGATGAATAATCGCTCAATATAAATATCTCTCACTTATTTAAA , its cleaved RNA product abundance was 0.228
